System: HEK293T cells
Conditions: 24 h
Peptide text beside a SMILES is read from it.
Below is a list of entries, each paired with its recorded CC50 value.
measurement name: CC50

compound	observed
CC[C@H](C)[C@H](N)C(=O)N[C@@H](CC(C)C)C(=O)N[C@H](C(=O)N[C@@H](CC(C)C)C(=O)N[C@@H](Cc1ccccc1)C(=O)N[C@H](C(=O)N[C@H](C(=O)N[C@@H](Cc1ccccc1)C(=O)N[C@@H](CCC(N)=O)C(=O)N[C@@H](CC(C)C)C(=O)N[C@@H](CCCCN)C(=O)N[C@H](C(=O)N[C@@H](CO)C(=O)N[C@@H](CCCCN)C(=O)N[C@@H](CC(C)C)C(=O)O)[C@@H](C)CC)[C@@H](C)CC)[C@@H](C)CC)[C@@H](C)O [Paleopropin-2] (H-ILTLFIIFQLKISKL-OH; N-terminus and C-terminus assumed)	> 128 µM
CC[C@H](C)[C@H](NC(=O)[C@H](CCCCN)NC(=O)[C@@H](NC(=O)[C@H](Cc1c[nH]c2ccccc12)NC(=O)[C@@H](N)CCCCN)[C@@H](C)O)C(=O)N[C@@H](Cc1ccc(O)cc1)C(=O)N[C@@H](CC(C)C)C(=O)N1CCC[C@H]1C(=O)N[C@@H](CC(C)C)C(=O)N[C@@H](CC(C)C)C(=O)N[C@@H](CC(C)C)C(=O)N1CCC[C@H]1C(=O)N[C@@H](CC(C)C)C(=O)O [Bisonin-2] (H-KWTKIYLPLLLPL-OH; N-terminus and C-terminus assumed)	> 128 µM
CC[C@H](C)[C@H](N)C(=O)N[C@@H](Cc1ccccc1)C(=O)N[C@@H](CC(C)C)C(=O)N[C@@H](Cc1c[nH]cn1)C(=O)N[C@@H](CC(C)C)C(=O)N[C@@H](CCCCN)C(=O)N[C@H](C(=O)N[C@@H](CC(C)C)C(=O)N[C@@H](CCCCN)C(=O)N[C@H](C(=O)N[C@H](C(=O)N[C@@H](CCCNC(=N)N)C(=O)N[C@@H](CC(C)C)C(=O)N[C@@H](CC(C)C)C(=O)O)[C@@H](C)CC)[C@@H](C)CC)[C@@H](C)CC [Elephasin-2] (H-IFLHLKILKIIRLL-OH; N-terminus and C-terminus assumed)	> 128 µM
CC[C@H](C)[C@H](NC(=O)[C@@H](NC(=O)[C@H](Cc1c[nH]c2ccccc12)NC(=O)[C@H](CCCCN)NC(=O)[C@@H](N)CCCCN)C(C)C)C(=O)N[C@@H](CCCCN)C(=O)N[C@@H](CO)C(=O)N[C@H](C(=O)N[C@H](C(=O)N[C@@H](Cc1ccccc1)C(=O)N[C@@H](Cc1ccccc1)C(=O)N[C@@H](CCCCN)C(=O)O)C(C)C)C(C)C [Hesperelin-2] (H-KKWVIKSVVFFK-OH; N-terminus and C-terminus assumed)	> 128 µM

====

Test system: 11 clinically relevant bacterial pathogens
Type: cell-based
Details: Supplementary Dataset 2; against the 11 pathogens tested
Peptide text beside a SMILES is read from it.
measurement name: Active or Inactive

molecule	observed
CC[C@H](C)[C@H](N)C(=O)N[C@@H](CC(C)C)C(=O)N[C@H](C(=O)N[C@@H](CC(C)C)C(=O)N[C@@H](Cc1ccccc1)C(=O)N[C@H](C(=O)N[C@H](C(=O)N[C@@H](Cc1ccccc1)C(=O)N[C@@H](CCC(N)=O)C(=O)N[C@@H](CC(C)C)C(=O)N[C@@H](CCCCN)C(=O)N[C@H](C(=O)N[C@@H](CO)C(=O)N[C@@H](CCCCN)C(=O)N[C@@H](CC(C)C)C(=O)O)[C@@H](C)CC)[C@@H](C)CC)[C@@H](C)CC)[C@@H](C)O [Paleopropin-2] (H-ILTLFIIFQLKISKL-OH; N-terminus and C-terminus assumed)	Active
CC(C)C[C@H](NC(=O)[C@H](CC(C)C)NC(=O)[C@@H](NC(=O)[C@H](CCCNC(=N)N)NC(=O)[C@H](C)NC(=O)[C@H](Cc1ccccc1)NC(=O)[C@H](CCCNC(=N)N)NC(=O)[C@H](CO)NC(=O)[C@H](Cc1c[nH]c2ccccc12)NC(=O)[C@H](CCCNC(=N)N)NC(=O)[C@H](CC(C)C)NC(=O)[C@H](CCCCN)NC(=O)[C@H](CC(C)C)NC(=O)[C@@H](N)Cc1ccccc1)C(C)C)C(=O)O [Equusin-1] (H-FLKLRWSRFARVLL-OH; N-terminus and C-terminus assumed)	Active

====

System: HEK293T cells
Details: 24 h
Peptide text beside a SMILES is read from it.
measurement name: TI (therapeutic index)

compound	measurement name	observed
CC[C@H](C)[C@H](NC(=O)[C@H](Cc1ccccc1)NC(=O)[C@H](CC(N)=O)NC(=O)[C@@H](NC(=O)[C@@H](NC(=O)[C@H](Cc1c[nH]cn1)NC(=O)[C@@H](N)CC(C)C)[C@@H](C)O)[C@@H](C)CC)C(=O)N[C@H](C(=O)N[C@@H](CCCCN)C(=O)N[C@@H](CO)C(=O)N[C@@H](CC(C)C)C(=O)N[C@@H](CC(C)C)C(=O)N[C@@H](CC(C)C)C(=O)O)[C@@H](C)CC [Bisonin-1] (H-LHTINFIIKSLLL-OH; N-terminus and C-terminus assumed)	TI (therapeutic index)	> 8

====

Test system: HEK293T cells
Conditions: 24 h
Peptide text beside a SMILES is read from it.

compound	CC50
CC[C@H](C)[C@H](NC(=O)[C@H](CC(C)C)NC(=O)[C@H](CCCNC(=N)N)NC(=O)[C@H](Cc1c[nH]c2ccccc12)NC(=O)[C@H](CC(C)C)NC(=O)[C@@H](NC(=O)[C@H](CCCNC(=N)N)NC(=O)[C@H](CCC(N)=O)NC(=O)[C@H](Cc1ccc(O)cc1)NC(=O)[C@H](CC(C)C)NC(=O)[C@@H](N)CCCCN)[C@@H](C)CC)C(=O)N[C@@H](CO)C(=O)N[C@@H](CCC(=O)O)C(=O)N[C@@H](CC(C)C)C(=O)O [Equusin-3] (H-KLYQRILWRLISEL-OH; N-terminus and C-terminus assumed)	> 128 µM

====

System: HEK293T cells
Conditions: 24 h
Peptide text beside a SMILES is read from it.
In this section we review reported TI (therapeutic index) values for a set of compounds.
measurement name: TI (therapeutic index)

compound	study target	measurement name	observed
CC[C@H](C)[C@H](N)C(=O)N[C@@H](CC(C)C)C(=O)N[C@@H](CC(C)C)C(=O)N[C@H](C(=O)N[C@H](C(=O)N[C@@H](C)C(=O)N[C@H](C(=O)N[C@@H](C)C(=O)N[C@H](C(=O)N[C@@H](CCCCN)C(=O)N[C@@H](CC(C)C)C(=O)NCC(=O)N[C@@H](CC(C)C)C(=O)O)[C@@H](C)CC)[C@@H](C)CC)[C@@H](C)O)[C@@H](C)O [Ararin-1] (H-ILLTTAIAIKLGL-OH; N-terminus and C-terminus assumed)	HEK293T cells	TI (therapeutic index)	> 4
CC[C@H](C)[C@H](NC(=O)[C@H](Cc1c[nH]cn1)NC(=O)[C@@H](N)CC(C)C)C(=O)NCC(=O)N[C@@H](CC(C)C)C(=O)N[C@H](C(=O)N[C@@H](CCCCN)C(=O)N[C@H](C(=O)N[C@@H](Cc1ccc(O)cc1)C(=O)N[C@@H](CC(C)C)C(=O)NCC(=O)N[C@@H](CO)C(=O)N[C@@H](Cc1ccccc1)C(=O)N[C@@H](C)C(=O)N[C@@H](CC(C)C)C(=O)O)[C@@H](C)O)[C@@H](C)CC [Eudyptin-1] (H-LHIGLIKTYLGSFAL-OH; N-terminus and C-terminus assumed)	HEK293T cells	TI (therapeutic index)	> 2
CC[C@H](C)[C@H](N)C(=O)N[C@@H](CC(C)C)C(=O)N[C@H](C(=O)N[C@@H](CC(C)C)C(=O)N[C@@H](Cc1ccccc1)C(=O)N[C@H](C(=O)N[C@H](C(=O)N[C@@H](Cc1ccccc1)C(=O)N[C@@H](CCC(N)=O)C(=O)N[C@@H](CC(C)C)C(=O)N[C@@H](CCCCN)C(=O)N[C@H](C(=O)N[C@@H](CO)C(=O)N[C@@H](CCCCN)C(=O)N[C@@H](CC(C)C)C(=O)O)[C@@H](C)CC)[C@@H](C)CC)[C@@H](C)CC)[C@@H](C)O [Paleopropin-2] (H-ILTLFIIFQLKISKL-OH; N-terminus and C-terminus assumed)	HEK293T cells	TI (therapeutic index)	> 8
CC[C@H](C)[C@H](NC(=O)[C@H](CCCCN)NC(=O)[C@H](CC(C)C)NC(=O)[C@H](CCC(N)=O)NC(=O)[C@H](Cc1ccccc1)NC(=O)[C@@H](NC(=O)[C@@H](NC(=O)[C@H](Cc1ccccc1)NC(=O)[C@H](CC(C)C)NC(=O)[C@@H](NC(=O)[C@@H](N)CC(C)C)[C@@H](C)O)[C@@H](C)CC)[C@@H](C)CC)C(=O)N[C@@H](CO)C(=O)N[C@@H](CCCCN)C(=O)N[C@@H](CC(C)C)C(=O)O [Paleopropin-1] (H-LTLFIIFQLKISKL-OH; N-terminus and C-terminus assumed)	HEK293T cells	TI (therapeutic index)	> 4
CC[C@H](C)[C@H](NC(=O)[C@@H](N)CC(C)C)C(=O)N[C@H](C(=O)N[C@@H](CS)C(=O)N[C@@H](Cc1ccccc1)C(=O)N[C@@H](Cc1ccccc1)C(=O)N[C@@H](CCCNC(=N)N)C(=O)N[C@@H](CCC(N)=O)C(=O)N[C@@H](CC(C)C)C(=O)N[C@@H](CCCCN)C(=O)N[C@@H](Cc1ccccc1)C(=O)N[C@@H](Cc1c[nH]cn1)C(=O)N[C@@H](Cc1ccccc1)C(=O)O)C(C)C [Megalocerin-1] (H-LIVCFFRQLKFHF-OH; N-terminus and C-terminus assumed)	HEK293T cells	TI (therapeutic index)	> 16
CC[C@H](C)[C@H](NC(=O)[C@H](CCCCN)NC(=O)[C@@H](NC(=O)[C@H](Cc1c[nH]c2ccccc12)NC(=O)[C@H](CCCCN)NC(=O)[C@@H](N)CCCCN)[C@@H](C)O)C(=O)N[C@@H](Cc1ccc(O)cc1)C(=O)N[C@@H](CO)C(=O)N1CCC[C@H]1C(=O)N[C@@H](CC(C)C)C(=O)N[C@@H](CO)C(=O)N[C@@H](CC(C)C)C(=O)O [Smilodin-1] (H-KKWTKIYSPLSL-OH; N-terminus and C-terminus assumed)	HEK293T cells	TI (therapeutic index)	> 2
CC[C@H](C)[C@H](NC(=O)[C@H](CCCCN)NC(=O)[C@H](CO)NC(=O)[C@H](CC(N)=O)NC(=O)[C@H](Cc1ccccc1)NC(=O)[C@H](Cc1c[nH]cn1)NC(=O)[C@H](Cc1ccccc1)NC(=O)[C@@H](N)Cc1c[nH]c2ccccc12)C(=O)N[C@@H](CC(C)C)C(=O)N[C@@H](CC(C)C)C(=O)N[C@@H](CC(C)C)C(=O)N[C@H](C(=O)NCC(=O)N[C@@H](CC(C)C)C(=O)O)[C@@H](C)O [Mylodonin-1] (H-WFHFNSKILLLTGL-OH; N-terminus and C-terminus assumed)	HEK293T cells	TI (therapeutic index)	> 16
CC[C@H](C)[C@H](NC(=O)[C@H](CCCCN)NC(=O)[C@@H](N)CCCNC(=N)N)C(=O)N[C@@H](CC(C)C)C(=O)NCC(=O)N[C@@H](CC(=O)O)C(=O)N[C@@H](CC(C)C)C(=O)N[C@@H](CCCCN)C(=O)N[C@@H](Cc1ccccc1)C(=O)N[C@@H](CC(C)C)C(=O)N[C@@H](CCC(=O)O)C(=O)N[C@@H](CO)C(=O)N[C@@H](CC(C)C)C(=O)N[C@@H](CCCCN)C(=O)N[C@H](C(=O)N[C@@H](Cc1ccc(O)cc1)C(=O)O)[C@@H](C)O [Anomalopterin-1] (H-RKILGDLKFLESLKTY-OH; N-terminus and C-terminus assumed)	HEK293T cells	TI (therapeutic index)	> 2
CC[C@H](C)[C@H](NC(=O)[C@@H](NC(=O)[C@H](CCSC)NC(=O)[C@@H](N)Cc1c[nH]c2ccccc12)[C@@H](C)O)C(=O)N[C@@H](Cc1c[nH]cn1)C(=O)N[C@@H](C)C(=O)N[C@@H](CC(C)C)C(=O)N[C@@H](CCCCN)C(=O)N[C@@H](CC(C)C)C(=O)N[C@@H](CO)C(=O)N[C@@H](CC(C)C)C(=O)N[C@@H](CO)C(=O)N[C@@H](Cc1ccccc1)C(=O)N[C@@H](CCCCN)C(=O)N[C@@H](CC(C)C)C(=O)O [Mammutin-1] (H-WMTIHALKLSLSFKL-OH; N-terminus and C-terminus assumed)	HEK293T cells	TI (therapeutic index)	> 64
